system.tested: Kappa-type opioid receptor (Homo sapiens)
Where a SMILES comes first, the peptide text is derived from it.
test.readout: pKi
Here pKi is given on a logarithmic scale as minus log10 of the concentration in mol/L.

Query string: For Kappa-type opioid receptor (Homo sapiens), provide pKi of N=C(N)NCCC[C@@H](NC(=O)[C@@H](CCCNC(=N)N)NC(=O)[C@@H]1CCCN1C(=O)c1ccccc1)C(=O)N[C@@H](CCC(N)=O)C(=O)N[C@@H](CC1CCCCC1)C(=O)N[C@H]1CC(=O)NC[C@@H](C(N)=O)NC1=O please.
Result string: 6.63

Query string: For Kappa-type opioid receptor (Homo sapiens), provide pKi of CC[C@H](C)[C@H](NC(=O)[C@H](C)NC(=O)[C@H](CCCNC(=N)N)NC(=O)[C@H](CCCNC(=N)N)NC(=O)[C@@H]1CSSC[C@H](NC(=O)[C@@H](N)CC(N)=O)C(=O)N1)C(=O)N[C@H]1CSSC[C@@H](C(N)=O)NC1=O (HELM PEPTIDE1{N.C.C.R.R.A.I.C.C.[am]}$PEPTIDE1,PEPTIDE1,2:R3-3:R3|PEPTIDE1,PEPTIDE1,8:R3-9:R3$$$V2.0) please.
Result string: 6.88

Query string: For Kappa-type opioid receptor (Homo sapiens), provide pKi of CC(C)[C@H](NC(=O)[C@H](CCC(N)=O)NC(=O)[C@H](CCCNC(=N)N)NC(=O)[C@H](CCCNC(=N)N)NC(=O)[C@@H]1CSSC[C@H](NC(=O)[C@@H](N)CC(N)=O)C(=O)N1)C(=O)N[C@H]1CSSC[C@@H](C(N)=O)NC1=O (HELM PEPTIDE1{N.C.C.R.R.Q.V.C.C.[am]}$PEPTIDE1,PEPTIDE1,2:R3-3:R3|PEPTIDE1,PEPTIDE1,8:R3-9:R3$$$V2.0) please.
Result string: 6.18

Query string: For Kappa-type opioid receptor (Homo sapiens), provide pKi of N=C(N)NCCC[C@@H](NC(=O)[C@@H](CCCNC(=N)N)NC(=O)[C@@H]1CCCN1C(=O)c1ccccc1)C(=O)N[C@@H](CCC(N)=O)C(=O)N[C@@H](CC1CCCCC1)C(=O)N1CCSSC[C@@H](C(N)=O)NC(=O)C1 please.
Result string: 6.70

* * *

assay.name: Metabolic stability in Wistar rat plasma assessed as half life by HPLC analysis
Format: ADME, cell-free
Where a SMILES comes first, the peptide text is derived from it.
half-life: recorded values
Kindly provide the numeric value in min only, without the unit symbol.

compound	half-life, min
N=C(N)NCCC[C@@H](NC(=O)[C@@H](CCCNC(=N)N)NC(=O)[C@@H]1CCCN1C(=O)c1ccc(Cl)cc1)C(=O)N[C@@H](CCC(N)=O)C(=O)N[C@@H](CC1CCCCC1)C(=O)N[C@H]1CSSC[C@@H](C(N)=O)NC1=O	60
CC[C@H](C)[C@H](NC(=O)[C@H](CCC(N)=O)NC(=O)[C@H](CCCNC(=N)N)NC(=O)[C@H](CCCNC(=N)N)NC(=O)[C@@H]1CSSC[C@H](NC(=O)[C@@H](N)CC(N)=O)C(=O)N1)C(=O)N[C@H]1CSSC[C@@H](C(N)=O)NC1=O (HELM PEPTIDE1{N.C.C.R.R.Q.I.C.C.[am]}$PEPTIDE1,PEPTIDE1,2:R3-3:R3|PEPTIDE1,PEPTIDE1,8:R3-9:R3$$$V2.0)	15
N=C(N)NCCC[C@@H](NC(=O)c1cc2ccccc2cc1N)C(=O)N[C@H](CCCNC(=N)N)C(=O)N[C@@H](CCC(N)=O)C(=O)N[C@@H](CC1CCCCC1)C(=O)N[C@H]1CSSC[C@@H](C(N)=O)NC1=O	60

Query string: Endpoint output: half-life of N=C(N)NCCC[C@H](NC(=O)[C@@H](CCCNC(=N)N)NC(=O)[C@@H](CCCNC(=N)N)NC(=O)[C@@H]1CCCN1C(=O)c1ccccc1)C(=O)N[C@@H](CC1CCCCC1)C(=O)N[C@H]1CSSC[C@@H](C(N)=O)NC1=O . Value?
Result string: 720

Query string: Endpoint output: half-life of N=C(N)NCCC[C@@H](NC(=O)[C@@H](CCCNC(=N)N)NC(=O)[C@@H]1CCCN1C(=O)c1ccc2ccccc2c1)C(=O)N[C@@H](CCC(N)=O)C(=O)N[C@@H](CC1CCCCC1)C(=O)N[C@H]1CSSC[C@@H](C(N)=O)NC1=O . Value?
Result string: 30

* * *

Ki: recorded values
system.tested: Kappa-type opioid receptor (Homo sapiens)
Where a SMILES comes first, the peptide text is derived from it.
Kindly provide the numeric value in nM only, without the unit symbol.

Here is how some compounds turned out for Ki.
compound	system.tested	measurement
N=C(N)NCCC[C@@H](NC(=O)c1cnc2ccccc2c1)C(=O)N[C@H](CCCNC(=N)N)C(=O)N[C@@H](CCC(N)=O)C(=O)N[C@@H](CC1CCCCC1)C(=O)N[C@H]1CSSC[C@@H](C(N)=O)NC1=O	Kappa-type opioid receptor (Homo sapiens)	0.71
CC(C)C[C@H](NC(=O)[C@@H](CCCNC(=N)N)NC(=O)[C@@H](CCCNC(=N)N)NC(=O)[C@@H]1CCCN1C(=O)c1ccccc1)C(=O)N[C@@H](CC1CCCCC1)C(=O)N[C@H]1CSSC[C@@H](C(N)=O)NC1=O	Kappa-type opioid receptor (Homo sapiens)	1.4
CC[C@H](C)[C@H](NC(=O)[C@H](CCC(N)=O)NC(=O)[C@H](CCCNC(=N)N)NC(=O)[C@H](CCCNC(=N)N)NC(=O)[C@@H]1CCC(=O)N1)C(=O)N[C@H]1CSSC[C@@H](C(N)=O)NC1=O (HELM PEPTIDE1{[Glp].R.R.Q.I.C.C.[am]}$PEPTIDE1,PEPTIDE1,6:R3-7:R3$$$V2.0)	Kappa-type opioid receptor (Homo sapiens)	191

Proceed to the following item.
Query string: For Kappa-type opioid receptor (Homo sapiens), provide Ki of CC[C@H](C)[C@H](NC(=O)[C@H](CCC(N)=O)NC(=O)[C@H](C)NC(=O)[C@H](CCCNC(=N)N)NC(=O)[C@@H]1CSSC[C@H](NC(=O)[C@@H](N)CC(N)=O)C(=O)N1)C(=O)N[C@H]1CSSC[C@@H](C(N)=O)NC1=O (HELM PEPTIDE1{N.C.C.R.A.Q.I.C.C.[am]}$PEPTIDE1,PEPTIDE1,2:R3-3:R3|PEPTIDE1,PEPTIDE1,8:R3-9:R3$$$V2.0) please.
Result string: 406

* * *

Where a SMILES comes first, the peptide text is derived from it.
Consider compounds characterized by their Ki with Kappa-type opioid receptor (Homo sapiens, UniProt P41145).
Sequence (P41145 whole entry): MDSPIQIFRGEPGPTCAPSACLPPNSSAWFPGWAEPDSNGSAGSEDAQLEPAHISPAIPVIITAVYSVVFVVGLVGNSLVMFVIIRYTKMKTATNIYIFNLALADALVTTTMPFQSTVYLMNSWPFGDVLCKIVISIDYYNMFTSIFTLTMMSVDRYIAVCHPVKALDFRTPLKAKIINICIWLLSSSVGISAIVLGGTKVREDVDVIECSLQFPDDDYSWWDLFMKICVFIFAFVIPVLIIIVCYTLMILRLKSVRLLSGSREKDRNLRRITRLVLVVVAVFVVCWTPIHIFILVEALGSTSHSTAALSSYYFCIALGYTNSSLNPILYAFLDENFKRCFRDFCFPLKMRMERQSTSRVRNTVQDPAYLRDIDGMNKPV
Kindly provide the numeric value in nM only, without the unit symbol.

Query string: Endpoint output: Ki of N=C(N)NCCC[C@@H](NC(=O)[C@@H]1CCC(=O)N1)C(=O)N[C@H](CCCNC(=N)N)C(=O)N[C@@H](CCC(N)=O)C(=O)N[C@@H](CC1CCCCC1)C(=O)N[C@H]1C[Se]SC[C@@H](C(N)=O)NC1=O . Value?
Result string: 7.8

Query string: Endpoint output: Ki of C[C@H](NC(=O)[C@H](CCC(N)=O)NC(=O)[C@H](CCCNC(=N)N)NC(=O)[C@H](CCCNC(=N)N)NC(=O)[C@@H]1CSSC[C@H](NC(=O)[C@@H](N)CC(N)=O)C(=O)N1)C(=O)N[C@H]1CSSC[C@@H](C(N)=O)NC1=O (HELM PEPTIDE1{N.C.C.R.R.Q.A.C.C.[am]}$PEPTIDE1,PEPTIDE1,2:R3-3:R3|PEPTIDE1,PEPTIDE1,8:R3-9:R3$$$V2.0) . Value?
Result string: 2450

Query string: Endpoint output: Ki of CC[C@H](C)[C@H](NC(=O)[C@H](CCC(N)=O)NC(=O)[C@H](CCCNC(=N)N)NC(=O)[C@H](CCCNC(=N)N)NC(=O)[C@@H]1CSSC[C@H](NC(=O)[C@@H]2CCC(=O)N2)C(=O)N1)C(=O)N[C@H]1CSSC[C@@H](C(N)=O)NC1=O (HELM PEPTIDE1{[Glp].C.C.R.R.Q.I.C.C.[am]}$PEPTIDE1,PEPTIDE1,2:R3-3:R3|PEPTIDE1,PEPTIDE1,8:R3-9:R3$$$V2.0) . Value?
Result string: 67.5

* * *

Consider molecules characterized by their pKi with Kappa-type opioid receptor (Homo sapiens, UniProt P41145).
Here pKi is given on a logarithmic scale as minus log10 of the concentration in mol/L.

Here is how some molecules turned out for pKi.
molecule	system.tested	measurement
N=C(N)NCCC[C@H](NC(=O)[C@@H]1CCC(=O)N1)C(=O)N[C@H](CCCNC(=N)N)C(=O)N[C@@H](CCC(N)=O)C(=O)N[C@@H](CC1CCCCC1)C(=O)N[C@H]1CSSC[C@@H](C(N)=O)NC1=O	Kappa-type opioid receptor (Homo sapiens, UniProt P41145)	7.79
N=C(N)NCCC[C@@H](NC(=O)Cc1cccc(Br)c1)C(=O)N[C@H](CCCNC(=N)N)C(=O)N[C@@H](CCC(N)=O)C(=O)N[C@@H](CC1CCCCC1)C(=O)N[C@H]1CSSC[C@@H](C(N)=O)NC1=O	Kappa-type opioid receptor (Homo sapiens, UniProt P41145)	8.92

Proceed to the following item.
Query string: For Kappa-type opioid receptor (Homo sapiens, UniProt P41145), provide pKi of N=C(N)NCCC[C@@H](NC(=O)[C@@H]1Cc2ccccc2CN1)C(=O)N[C@H](CCCNC(=N)N)C(=O)N[C@@H](CCC(N)=O)C(=O)N[C@@H](CC1CCCCC1)C(=O)N[C@H]1CSSC[C@@H](C(N)=O)NC1=O please.
Result string: 9.04

Every entry's value here was drawn from ChEMBL document CHEMBL5252514.
